# target_entity: CYP3A4 (Homo sapiens)
# Sequence (P08684 whole entry): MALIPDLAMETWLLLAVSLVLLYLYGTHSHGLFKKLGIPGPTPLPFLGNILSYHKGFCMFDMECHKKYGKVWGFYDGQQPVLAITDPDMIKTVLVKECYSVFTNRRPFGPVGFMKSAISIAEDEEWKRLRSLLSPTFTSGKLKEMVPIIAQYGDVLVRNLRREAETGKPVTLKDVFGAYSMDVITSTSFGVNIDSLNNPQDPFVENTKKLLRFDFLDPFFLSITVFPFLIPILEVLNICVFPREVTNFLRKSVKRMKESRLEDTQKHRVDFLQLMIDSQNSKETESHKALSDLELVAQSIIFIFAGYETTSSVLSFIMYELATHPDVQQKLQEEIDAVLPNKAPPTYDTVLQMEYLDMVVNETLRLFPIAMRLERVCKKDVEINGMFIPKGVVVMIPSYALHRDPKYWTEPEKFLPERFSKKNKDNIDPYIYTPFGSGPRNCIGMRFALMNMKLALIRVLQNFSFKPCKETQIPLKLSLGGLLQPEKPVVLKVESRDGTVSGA
# method_description: P450-Glo CYP3A4 luciferin isopropylacetal (Luc-IP) assay
observable: IC50

Incoming: Supply measured IC50 of O=C(NC[C@@H]1CCCNC1)c1ccc(-c2c[nH]c3cc(F)ccc23)cc1 in your reply.
Outgoing: 5 to 10 µM

Incoming: Supply measured IC50 of CN1CC(C(=O)Nc2ccc(-c3c[nH]c4cc(F)ccc34)cc2)CCC1=O (centres unmarked) in your reply.
Outgoing: > 10 µM

Incoming: Supply measured IC50 of Cc1cc(C(=O)N[C@H]2CCCNC2)ccc1-c1c[nH]c2cc(F)ccc12 in your reply.
Outgoing: 5 to 10 µM

Incoming: Supply measured IC50 of CC(=O)NCCNC(=O)c1ccc(-c2c[nH]c3cc(F)ccc23)cc1 in your reply.
Outgoing: > 10 µM

Incoming: Supply measured IC50 of CS(=O)(=O)CC(=O)Nc1ccc(-c2c[nH]c3cc(F)ccc23)cc1 in your reply.
Outgoing: > 10 µM
